- systemName: full-length human PKCι (Homo sapiens)
- Construct: Recombinant, full-length human PKCι expressed in Sf21 insect cells is also commercially available
- Sequence (P41743 whole entry): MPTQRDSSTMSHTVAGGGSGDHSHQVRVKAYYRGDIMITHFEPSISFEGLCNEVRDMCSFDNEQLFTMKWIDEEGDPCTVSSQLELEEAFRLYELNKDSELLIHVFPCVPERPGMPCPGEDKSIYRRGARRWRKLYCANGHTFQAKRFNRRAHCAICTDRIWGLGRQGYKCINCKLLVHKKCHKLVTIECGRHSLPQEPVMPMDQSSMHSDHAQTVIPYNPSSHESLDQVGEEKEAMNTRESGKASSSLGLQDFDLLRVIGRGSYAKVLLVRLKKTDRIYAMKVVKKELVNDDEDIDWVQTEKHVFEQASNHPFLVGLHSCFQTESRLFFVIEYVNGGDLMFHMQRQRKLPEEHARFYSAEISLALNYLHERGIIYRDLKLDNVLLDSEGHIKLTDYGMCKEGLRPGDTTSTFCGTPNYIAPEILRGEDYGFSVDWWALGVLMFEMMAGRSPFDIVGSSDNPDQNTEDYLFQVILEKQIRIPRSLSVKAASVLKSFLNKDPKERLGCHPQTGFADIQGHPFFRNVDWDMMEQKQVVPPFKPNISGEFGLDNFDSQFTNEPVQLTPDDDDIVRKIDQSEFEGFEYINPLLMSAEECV
- experiment: PKCι IC50 IMAP assay, full-length PKCι at 150 μM ATP
- conditionDescription: read-out: IC50 in IMAP assay against full length PKCi at 150 μM ATP
pIC50: −log10 of the molar value.
metric: pIC50

COc1cncc2nc(N3CCOCC3)nc(N3CCC[C@H](Nc4ccccc4)C3)c12 = 5.00 to 6.00
Fc1cccc(F)c1-c1cc2c(-c3nc(N4CCNCC4)c4c(C5CCC5)cncc4n3)ccnc2[nH]1 = > 7.00
N#Cc1ccnc(Nc2cc(-c3nc(N4CC[C@@H](O)[C@@H](O)C4)c4c(C5CC5)cncc4n3)ccn2)c1 (stereo in doubt) = 6.00 to 7.00
COc1cc(Nc2cc(-c3nc(N4CCNCC4)c4c(OC)cncc4n3)ccn2)cc(OC)c1OC = 6.00 to 7.00
c1cc2c(N[C@@H]3CCNC3)nc(-c3ccnc(Nc4cc(N5CCOCC5)ccn4)c3)nc2cn1 = 6.00 to 7.00

Would you kindly look at the next entry?
Give the measured pIC50 of C[C@@H](Nc1cc(-c2nc(N3CCNCC3)c3c(C4CCC4)cncc3n2)ccn1)c1ccccc1F .
> 7.00
